Data origin: ChEMBL document CHEMBL5154900

# experiment: AUC in 12 hr fasted BALB/c mouse at 80 mg/kg, ip measured for 0.083 to 24 hrs by UPLC-MS/MS analysis
# Format: ADME, organism-based
# Set-up: time lower 0.083 hrs, dose 80 mg/kg, time upper 24 hrs, route ip
# condition_set: in vivo
assay_endpoint: AUC
Quick note: unit goes after the number.

So what's the measured AUC for this one? CCN(c1cc(-c2ccc(OCCCCCNC(=O)C[C@@H]3N=C(c4ccc(Cl)cc4)c4c(sc(C)c4C)-n4c(C)nnc43)cc2)cc(C(=O)NCc2c(C)cc(C)[nH]c2=O)c1C)C1CCOCC1 273 µg·h/mL

====

Listed molecules paired with reported IC50
# tested_on: Histone-lysine N-methyltransferase EZH2 (Homo sapiens)
# Sequence (Q15910 whole entry): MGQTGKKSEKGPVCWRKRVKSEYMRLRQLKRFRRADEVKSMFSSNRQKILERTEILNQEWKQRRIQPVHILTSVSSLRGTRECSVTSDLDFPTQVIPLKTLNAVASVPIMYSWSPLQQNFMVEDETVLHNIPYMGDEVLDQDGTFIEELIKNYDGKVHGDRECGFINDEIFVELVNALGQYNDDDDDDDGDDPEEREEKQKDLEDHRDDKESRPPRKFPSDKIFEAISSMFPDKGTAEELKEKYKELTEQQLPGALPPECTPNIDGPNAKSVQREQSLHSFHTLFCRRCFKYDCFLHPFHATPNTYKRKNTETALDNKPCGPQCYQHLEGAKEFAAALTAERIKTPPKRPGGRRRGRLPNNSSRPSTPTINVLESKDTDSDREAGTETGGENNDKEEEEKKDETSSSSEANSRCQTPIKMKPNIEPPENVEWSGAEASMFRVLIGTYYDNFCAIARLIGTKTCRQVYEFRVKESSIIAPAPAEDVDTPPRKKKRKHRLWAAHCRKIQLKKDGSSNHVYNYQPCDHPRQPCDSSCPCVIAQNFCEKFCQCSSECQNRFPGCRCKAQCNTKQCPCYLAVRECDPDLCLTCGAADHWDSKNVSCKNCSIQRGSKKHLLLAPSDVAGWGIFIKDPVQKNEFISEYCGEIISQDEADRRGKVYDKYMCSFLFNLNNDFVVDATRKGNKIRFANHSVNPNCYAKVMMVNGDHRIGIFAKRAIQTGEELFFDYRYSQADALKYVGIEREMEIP
Numeric only. Scale: µM

| molecule_smiles | unit_of_measurement | quantitative_result |
| --- | --- | --- |
| CCN(c1cc(-c2ccc(NC(=O)CCCCCCCNC(=O)C[C@@H]3N=C(c4ccc(Cl)cc4)c4c(sc(C)c4C)-n4c(C)nnc43)cc2)cc(C(=O)NCc2c(C)cc(C)[nH]c2=O)c1C)C1CCOCC1 | µM | 0.55 |
| CCN(c1cc(-c2ccc(CNC(=O)C[C@@H]3N=C(c4ccc(Cl)cc4)c4c(sc(C)c4C)-n4c(C)nnc43)cc2)cc(C(=O)NCc2c(C)cc(C)[nH]c2=O)c1C)C1CCOCC1 | µM | 29.8 |

Form entry - test system: Histone-lysine N-methyltransferase EZH2 (Homo sapiens); read-out: IC50; molecule: CCN(c1cc(-c2ccc(OCCNC(=O)C[C@@H]3N=C(c4ccc(Cl)cc4)c4c(sc(C)c4C)-n4c(C)nnc43)cc2)cc(C(=O)NCc2c(C)cc(C)[nH]c2=O)c1C)C1CCOCC1 7.55

Form entry - test system: Histone-lysine N-methyltransferase EZH2 (Homo sapiens); read-out: IC50; molecule: CCN(c1cc(-c2ccc(NC(=O)CCOCCOCCOCCNC(=O)C[C@@H]3N=C(c4ccc(Cl)cc4)c4c(sc(C)c4C)-n4c(C)nnc43)cc2)cc(C(=O)NCc2c(C)cc(C)[nH]c2=O)c1C)C1CCOCC1 1.04

Form entry - test system: Histone-lysine N-methyltransferase EZH2 (Homo sapiens); read-out: IC50; molecule: CCN(c1cc(-c2ccc(CCNC(=O)C[C@@H]3N=C(c4ccc(Cl)cc4)c4c(sc(C)c4C)-n4c(C)nnc43)cc2)cc(C(=O)NCc2c(C)cc(C)[nH]c2=O)c1C)C1CCOCC1 77.8

====

What follows is a record of pIC50 for Histone-lysine N-methyltransferase EZH2 (Homo sapiens, UniProt Q15910).
Just so you know, pIC50 here is -log10 of the concentration in molar units; reply with that number alone.

Solved entries:
| molecule_smiles | pIC50 |
| --- | --- |
| CCN(c1cc(-c2ccc(NC(=O)C[C@@H]3N=C(c4ccc(Cl)cc4)c4c(sc(C)c4C)-n4c(C)nnc43)cc2)cc(C(=O)NCc2c(C)cc(C)[nH]c2=O)c1C)C1CCOCC1 | 4.79 |
| CCN(c1cc(-c2ccc(NC(=O)CCCCCCNC(=O)C[C@@H]3N=C(c4ccc(Cl)cc4)c4c(sc(C)c4C)-n4c(C)nnc43)cc2)cc(C(=O)NCc2c(C)cc(C)[nH]c2=O)c1C)C1CCOCC1 | 6.28 |

Okay, next one:
So what's the measured pIC50 for this one? CCN(c1cc(-c2ccc(C(=O)NCCOCCNC(=O)C[C@@H]3N=C(c4ccc(Cl)cc4)c4c(sc(C)c4C)-n4c(C)nnc43)cc2)cc(C(=O)NCc2c(C)cc(C)[nH]c2=O)c1C)C1CCOCC1 6.52
